B1: HESX1 (parent)
chain: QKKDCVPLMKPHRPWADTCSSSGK

Variants of: B1
Test: protein stability index of a GFP-peptide fusion (GPS, HEK-293T) (PSI 1-6); higher = more stable;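 note: lentivirally expressed fusions sorted by FACS into six bins by GFP to DsRed ratio, PSI derived from sequencing read proportions per bin multiplied by bin number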
Conditions: c terminus: a fixed tail appended
ENDPOINT: protein stability index
I'd appreciate a reply containing only the number, no unit.

### Prompt So what does the record say about protein stability index for QKKQCVPLMKPHRPWADTCSSSGK [D4Q] ?
### Response 3.54

### Prompt So what does the record say about protein stability index for QKKDCVPLMKPKRPWADTCSSSGK [H12K] ?
### Response 3.73

### Prompt So what does the record say about protein stability index for QKKDCVPLMKPHRPGADTCSSSGK [W15G] ?
### Response 4.96

### Prompt So what does the record say about protein stability index for QKKDAVPLMKPHRPWADTCSSSGK [C5A] ?
### Response 3.08

### Prompt So what does the record say about protein stability index for QKKDCVPLMKPHREWADTCSSSGK [P14E] ?
### Response 4.12

### Prompt So what does the record say about protein stability index for QKKDCVPLMKPHRPWADTCESSGK [S20E] ?
### Response 3.47

### Prompt So what does the record say about protein stability index for QKKDCVPLMKPHRPWADTCSSSDK [G23D] ?
### Response 2.46

### Prompt So what does the record say about protein stability index for QKKNCVPLMKPHRPWADTCSSSGK [D4N] ?
### Response 3.24

### Prompt So what does the record say about protein stability index for QKKDCVPLMKPHDPWADTCSSSGK [R13D] ?
### Response 4.11

### Prompt So what does the record say about protein stability index for QKKDCVPNMKPHRPWADTCSSSGK [L8N] ?
### Response 3.19

### Prompt So what does the record say about protein stability index for QKKDCVPLMWPHRPWADTCSSSGK [K10W] ?
### Response 2.52

### Prompt So what does the record say about protein stability index for QKKDCSPLMKPHRPWADTCSSSGK [V6S] ?
### Response 3.4

### Prompt So what does the record say about protein stability index for QKKDCVPLMKPHRPWMDTCSSSGK [A16M] ?
### Response 4.02

### Prompt So what does the record say about protein stability index for QKKDCVPLMKPHRAWADTCSSSGK [P14A] ?
### Response 2.52

### Prompt So what does the record say about protein stability index for QKKDTVPLMKPHRPWADTCSSSGK [C5T] ?
### Response 3.2

### Prompt So what does the record say about protein stability index for QKKDCVPLMKPHRPWADTCSKSGK [S21K] ?
### Response 3.68

### Prompt So what does the record say about protein stability index for QKNDCVPLMKPHRPWADTCSSSGK [K3N] ?
### Response 3.67

### Prompt So what does the record say about protein stability index for QKKDCVPLMKAHRPWADTCSSSGK [P11A] ?
### Response 3.29

### Prompt So what does the record say about protein stability index for QKKDCVPLMKPHRPWADTCSSSYK [G23Y] ?
### Response 3.15

### Prompt So what does the record say about protein stability index for QKKDSVPLMKPHRPWADTCSSSGK [C5S] ?
### Response 3.4

### Prompt So what does the record say about protein stability index for QKKDCVPLMKPHRPWADTCSSSFK [G23F] ?
### Response 1.61

### Prompt So what does the record say about protein stability index for QKKDCVPLMKPHRPWADTCVSSGK [S20V] ?
### Response 3.84

### Prompt So what does the record say about protein stability index for QKKDCVPLMKPHRPWPDTCSSSGK [A16P] ?
### Response 3.96

### Prompt So what does the record say about protein stability index for QKKDCVPLMKPHRPWADTCSSTGK [S22T] ?
### Response 3.08

### Prompt So what does the record say about protein stability index for QKKDCVPLMKFHRPWADTCSSSGK [P11F] ?
### Response 3.03

### Prompt So what does the record say about protein stability index for QKGDCVPLMKPHRPWADTCSSSGK [K3G] ?
### Response 3.2

### Prompt So what does the record say about protein stability index for QKKDCVPLMKPHRPWADTCSSFGK [S22F] ?
### Response 2.74

### Prompt So what does the record say about protein stability index for QKKDCVPLMKPHRPWTDTCSSSGK [A16T] ?
### Response 3.76

### Prompt So what does the record say about protein stability index for QKKDCVPLMKPHRPFADTCSSSGK [W15F] ?
### Response 3.47

### Prompt So what does the record say about protein stability index for QKKDCVPLMKPHRPWGDTCSSSGK [A16G] ?
### Response 3.57

### Prompt So what does the record say about protein stability index for GKKDCVPLMKPHRPWADTCSSSGK [Q1G] ?
### Response 4.01

### Prompt So what does the record say about protein stability index for QKKDCVPLMKPHRPWADTCSCSGK [S21C] ?
### Response 2.92

### Prompt So what does the record say about protein stability index for QKKDYVPLMKPHRPWADTCSSSGK [C5Y] ?
### Response 3.38

### Prompt So what does the record say about protein stability index for QKKCCVPLMKPHRPWADTCSSSGK [D4C] ?
### Response 2.38

### Prompt So what does the record say about protein stability index for QKKDCVPLMKPHRPWAMTCSSSGK [D17M] ?
### Response 3.36

### Prompt So what does the record say about protein stability index for QKKDCVPLMKPMRPWADTCSSSGK [H12M] ?
### Response 3.18

### Prompt So what does the record say about protein stability index for QKKDCVPMMKPHRPWADTCSSSGK [L8M] ?
### Response 3

### Prompt So what does the record say about protein stability index for QKKDCVPLMKPHRPWADECSSSGK [T18E] ?
### Response 4.29

### Prompt So what does the record say about protein stability index for QKKDCVPLMKPHRPWADTCSSSGM [K24M] ?
### Response 2.05

### Prompt So what does the record say about protein stability index for QKKACVPLMKPHRPWADTCSSSGK [D4A] ?
### Response 2.87

### Prompt So what does the record say about protein stability index for QKKDCVPLMKPHRDWADTCSSSGK [P14D] ?
### Response 3.21

### Prompt So what does the record say about protein stability index for QKKDCVQLMKPHRPWADTCSSSGK [P7Q] ?
### Response 3.34

### Prompt So what does the record say about protein stability index for QKKDCVPLMKPHRPWADTRSSSGK [C19R] ?
### Response 4.08

### Prompt So what does the record say about protein stability index for QKKDCTPLMKPHRPWADTCSSSGK [V6T] ?
### Response 3.92

### Prompt So what does the record say about protein stability index for TKKDCVPLMKPHRPWADTCSSSGK [Q1T] ?
### Response 3.4

### Prompt So what does the record say about protein stability index for QKKDCVPLMIPHRPWADTCSSSGK [K10I] ?
### Response 3.7

### Prompt So what does the record say about protein stability index for QKKDCVPLMKPHRPWADLCSSSGK [T18L] ?
### Response 2.24

### Prompt So what does the record say about protein stability index for EKKDCVPLMKPHRPWADTCSSSGK [Q1E] ?
### Response 3.98

### Prompt So what does the record say about protein stability index for QKKDCVPLMKPHRIWADTCSSSGK [P14I] ?
### Response 3.26

### Prompt So what does the record say about protein stability index for QKKDCVVLMKPHRPWADTCSSSGK [P7V] ?
### Response 2.56

### Prompt So what does the record say about protein stability index for QKKDCVPLMKPHRPWADTCPSSGK [S20P] ?
### Response 3.79

### Prompt So what does the record say about protein stability index for QKKDCVPLMKPHRPWADTCSSSSK [G23S] ?
### Response 3.32

### Prompt So what does the record say about protein stability index for QKKDCVPLTKPHRPWADTCSSSGK [M9T] ?
### Response 3.77

### Prompt So what does the record say about protein stability index for QKKDHVPLMKPHRPWADTCSSSGK [C5H] ?
### Response 3.83

### Prompt So what does the record say about protein stability index for QKKDCVPLMKPHRPWADTCSSSGE [K24E] ?
### Response 2.28

### Prompt So what does the record say about protein stability index for QKKDCVPLWKPHRPWADTCSSSGK [M9W] ?
### Response 3

### Prompt So what does the record say about protein stability index for QKKDCVPLMKPHRPWAGTCSSSGK [D17G] ?
### Response 3.45

### Prompt So what does the record say about protein stability index for QKKDCVPLMKPHRPSADTCSSSGK [W15S] ?
### Response 4.8

### Prompt So what does the record say about protein stability index for QKKDCVPLMKPNRPWADTCSSSGK [H12N] ?
### Response 3.77

### Prompt So what does the record say about protein stability index for QKKDCRPLMKPHRPWADTCSSSGK [V6R] ?
### Response 2.88

### Prompt So what does the record say about protein stability index for QKKDCVPLMKPHTPWADTCSSSGK [R13T] ?
### Response 3.33

### Prompt So what does the record say about protein stability index for QKKDCVPLMKPHRPWADTCSSSCK [G23C] ?
### Response 2.45

### Prompt So what does the record say about protein stability index for QKKDCVPGMKPHRPWADTCSSSGK [L8G] ?
### Response 3.18

### Prompt So what does the record say about protein stability index for QKKDCVPLMKPHRPWADTCSSSMK [G23M] ?
### Response 3.08

### Prompt So what does the record say about protein stability index for QKKDCVPLMKPHRPWADTYSSSGK [C19Y] ?
### Response 3.25

### Prompt So what does the record say about protein stability index for QKKDCVPLMKPHRPWAHTCSSSGK [D17H] ?
### Response 3.71

### Prompt So what does the record say about protein stability index for NKKDCVPLMKPHRPWADTCSSSGK [Q1N] ?
### Response 3.22

### Prompt So what does the record say about protein stability index for QKKDCVPLMKPHRPWADTISSSGK [C19I] ?
### Response 2.45

### Prompt So what does the record say about protein stability index for QKKDCVPLMSPHRPWADTCSSSGK [K10S] ?
### Response 3.74

### Prompt So what does the record say about protein stability index for QKKDCVPLMMPHRPWADTCSSSGK [K10M] ?
### Response 2.92

### Prompt So what does the record say about protein stability index for QKKDCVPLMKPHMPWADTCSSSGK [R13M] ?
### Response 3.06

### Prompt So what does the record say about protein stability index for QKKDLVPLMKPHRPWADTCSSSGK [C5L] ?
### Response 3.59

### Prompt So what does the record say about protein stability index for QKKDCVPLMKPPRPWADTCSSSGK [H12P] ?
### Response 4.01

### Prompt So what does the record say about protein stability index for QKKDCVALMKPHRPWADTCSSSGK [P7A] ?
### Response 2.79

### Prompt So what does the record say about protein stability index for QKKDCVPLEKPHRPWADTCSSSGK [M9E] ?
### Response 4.04

### Prompt So what does the record say about protein stability index for QKKDCVPLMKPHRPWADTCSSSKK [G23K] ?
### Response 4.08

### Prompt So what does the record say about protein stability index for QKKDMVPLMKPHRPWADTCSSSGK [C5M] ?
### Response 3.19

### Prompt So what does the record say about protein stability index for QKKDCVPLMVPHRPWADTCSSSGK [K10V] ?
### Response 3.94

### Prompt So what does the record say about protein stability index for QKKICVPLMKPHRPWADTCSSSGK [D4I] ?
### Response 3.25

### Prompt So what does the record say about protein stability index for QKKDCVPLMKPHRPWADTESSSGK [C19E] ?
### Response 4.32

### Prompt So what does the record say about protein stability index for QKKDCVPLMKPHRPWADTCYSSGK [S20Y] ?
### Response 2.31

### Prompt So what does the record say about protein stability index for QLKDCVPLMKPHRPWADTCSSSGK [K2L] ?
### Response 3.3

### Prompt So what does the record say about protein stability index for CKKDCVPLMKPHRPWADTCSSSGK [Q1C] ?
### Response 2.94

### Prompt So what does the record say about protein stability index for QKKDCVPSMKPHRPWADTCSSSGK [L8S] ?
### Response 3.86

### Prompt So what does the record say about protein stability index for QKKDCVPLMKPHRPWADTCSSSGF [K24F] ?
### Response 2.56

### Prompt So what does the record say about protein stability index for QKLDCVPLMKPHRPWADTCSSSGK [K3L] ?
### Response 3.42

### Prompt So what does the record say about protein stability index for QKKDCVPLMKPHRPWATTCSSSGK [D17T] ?
### Response 3.06

### Prompt So what does the record say about protein stability index for QKKDCVPLMKPHRPWADTCSISGK [S21I] ?
### Response 2.69

### Prompt So what does the record say about protein stability index for QKKTCVPLMKPHRPWADTCSSSGK [D4T] ?
### Response 2.49

### Prompt So what does the record say about protein stability index for QKKDCVPLMKPSRPWADTCSSSGK [H12S] ?
### Response 4.05

### Prompt So what does the record say about protein stability index for QKKDCVPLMKPHRPWLDTCSSSGK [A16L] ?
### Response 3.75
